# System: Human Oral Mucosa Explant Tissues
# Protocol: Effect of final gel pH on anthocyanin uptake into human oral mucosa explant tissues
# Assay type: in vitro ADME
# Experimental context: explant sample 006; 10% w/w FBR gel
Below, each of the compounds is paired with its reported Anthocyanin uptake, Gel pH 6.5 value.
Give the value, in units of pmol per mg tissue, as a plain number.

C[C@@H]1O[C@@H](OC[C@H]2O[C@@H](Oc3cc4c(O)cc(O)cc4[o+]c3-c3ccc(O)c(O)c3)[C@H](O)[C@@H](O)[C@@H]2O)[C@H](O)[C@H](O)[C@H]1O [cyanidin 3-rutinoside] : 211.1
OC[C@H]1O[C@@H](Oc2cc3c(O)cc(O)cc3[o+]c2-c2ccc(O)c(O)c2)[C@H](O[C@@H]2OC[C@@H](O)[C@H](O)[C@H]2O)[C@@H](O)[C@@H]1O.[Cl-] [Cyanidin 3-sambubioside, cyanidin 3-sambubioside] : 10.1
CC1OC(OCC2OC(Oc3cc4c(O)cc(O)cc4[o+]c3-c3ccc(O)c(O)c3)C(OC3OCC(O)C(O)C3O)C(O)C2O)C(O)C(O)C1O (stereo not shown) [cyanidin 3-xylosylrutinoside] : 35.5

Ask | Enter Anthocyanin uptake, Gel pH 6.5 (test system Human Oral Mucosa Explant Tissues) for OC[C@H]1O[C@@H](Oc2cc3c(O)cc(O)cc3[o+]c2-c2ccc(O)c(O)c2)[C@H](O)[C@@H](O)[C@@H]1O [cyanidin 3-glucoside]
Reply | 60.3

* * *

Listing of recorded % change 3.5 to 6.5 by entry.
# System: Human Oral Mucosa Explant Tissues
# Protocol: Effect of final gel pH on anthocyanin uptake into human oral mucosa explant tissues
# Assay type: in vitro ADME
# Experimental context: explant sample 003; 10% w/w FBR gel
Please state the value followed by its unit.

C[C@@H]1O[C@@H](OC[C@H]2O[C@@H](Oc3cc4c(O)cc(O)cc4[o+]c3-c3ccc(O)c(O)c3)[C@H](O)[C@@H](O)[C@@H]2O)[C@H](O)[C@H](O)[C@H]1O [cyanidin 3-rutinoside] : −14.8%

Ask | Check the records and state % change 3.5 to 6.5 for CC1OC(OCC2OC(Oc3cc4c(O)cc(O)cc4[o+]c3-c3ccc(O)c(O)c3)C(OC3OCC(O)C(O)C3O)C(O)C2O)C(O)C(O)C1O (stereo not shown) [cyanidin 3-xylosylrutinoside]
Reply | 12.1%

Ask | State, in one line, measured % change 3.5 to 6.5 of OC[C@H]1O[C@@H](Oc2cc3c(O)cc(O)cc3[o+]c2-c2ccc(O)c(O)c2)[C@H](O)[C@@H](O)[C@@H]1O [cyanidin 3-glucoside]
Reply | −16.6%

Ask | Item OC[C@H]1O[C@@H](Oc2cc3c(O)cc(O)cc3[o+]c2-c2ccc(O)c(O)c2)[C@H](O[C@@H]2OC[C@@H](O)[C@H](O)[C@H]2O)[C@@H](O)[C@@H]1O.[Cl-] [Cyanidin 3-sambubioside, cyanidin 3-sambubioside] : provide % change 3.5 to 6.5
Reply | −19.7%

* * *

# Test system: Human Oral Mucosa Explant Tissues
# Protocol: Effect of final gel pH on anthocyanin uptake into human oral mucosa explant tissues
# Format: in vitro ADME
# Experimental context: explant sample 010; 10% w/w FBR gel
Property label: Anthocyanin uptake, Gel pH 3.5

Please review the following examples before continuing.
CC1OC(OCC2OC(Oc3cc4c(O)cc(O)cc4[o+]c3-c3ccc(O)c(O)c3)C(OC3OCC(O)C(O)C3O)C(O)C2O)C(O)C(O)C1O (stereo not shown) [cyanidin 3-xylosylrutinoside] : 6.7 pmol per mg tissue
OC[C@H]1O[C@@H](Oc2cc3c(O)cc(O)cc3[o+]c2-c2ccc(O)c(O)c2)[C@H](O)[C@@H](O)[C@@H]1O [cyanidin 3-glucoside] : 13.9 pmol per mg tissue
C[C@@H]1O[C@@H](OC[C@H]2O[C@@H](Oc3cc4c(O)cc(O)cc4[o+]c3-c3ccc(O)c(O)c3)[C@H](O)[C@@H](O)[C@@H]2O)[C@H](O)[C@H](O)[C@H]1O [cyanidin 3-rutinoside] : 37.1 pmol per mg tissue

Now let's try a different one.
Ask | Determine its reported Anthocyanin uptake, Gel pH 3.5: OC[C@H]1O[C@@H](Oc2cc3c(O)cc(O)cc3[o+]c2-c2ccc(O)c(O)c2)[C@H](O[C@@H]2OC[C@@H](O)[C@H](O)[C@H]2O)[C@@H](O)[C@@H]1O.[Cl-] [Cyanidin 3-sambubioside, cyanidin 3-sambubioside]
Reply | 2.0 pmol per mg tissue

* * *

// reported Anthocyanin uptake, Gel pH 3.5 for each item listed
# Test system: Human Oral Mucosa Explant Tissues
# Protocol: Effect of final gel pH on anthocyanin uptake into human oral mucosa explant tissues
# Assay type: in vitro ADME
# Experimental context: explant sample 008; 10% w/w FBR gel
Respond numerically; units are pmol per mg tissue and should not be typed.

Before answering, review these 3 worked examples.
OC[C@H]1O[C@@H](Oc2cc3c(O)cc(O)cc3[o+]c2-c2ccc(O)c(O)c2)[C@H](O)[C@@H](O)[C@@H]1O [cyanidin 3-glucoside] : 33.2
CC1OC(OCC2OC(Oc3cc4c(O)cc(O)cc4[o+]c3-c3ccc(O)c(O)c3)C(OC3OCC(O)C(O)C3O)C(O)C2O)C(O)C(O)C1O (stereo not shown) [cyanidin 3-xylosylrutinoside] : 0.0
OC[C@H]1O[C@@H](Oc2cc3c(O)cc(O)cc3[o+]c2-c2ccc(O)c(O)c2)[C@H](O[C@@H]2OC[C@@H](O)[C@H](O)[C@H]2O)[C@@H](O)[C@@H]1O.[Cl-] [Cyanidin 3-sambubioside, cyanidin 3-sambubioside] : 0.0

Lab note: next compound to report on.
Ask | Report measured Anthocyanin uptake, Gel pH 3.5; entry is C[C@@H]1O[C@@H](OC[C@H]2O[C@@H](Oc3cc4c(O)cc(O)cc4[o+]c3-c3ccc(O)c(O)c3)[C@H](O)[C@@H](O)[C@@H]2O)[C@H](O)[C@H](O)[C@H]1O [cyanidin 3-rutinoside]
Reply | 0.4

* * *

Entries and their measured % change 3.5 to 6.5 follow.
# Tested on: Human Oral Mucosa Explant Tissues
# Protocol: Effect of final gel pH on anthocyanin uptake into human oral mucosa explant tissues
# Assay type: in vitro ADME
# Experimental context: explant sample 004; 10% w/w FBR gel
Supply the numeric figure in %, leaving out any unit text.

These recorded examples may help you get a feel for the data.
C[C@@H]1O[C@@H](OC[C@H]2O[C@@H](Oc3cc4c(O)cc(O)cc4[o+]c3-c3ccc(O)c(O)c3)[C@H](O)[C@@H](O)[C@@H]2O)[C@H](O)[C@H](O)[C@H]1O [cyanidin 3-rutinoside] : −64.4
CC1OC(OCC2OC(Oc3cc4c(O)cc(O)cc4[o+]c3-c3ccc(O)c(O)c3)C(OC3OCC(O)C(O)C3O)C(O)C2O)C(O)C(O)C1O (stereo not shown) [cyanidin 3-xylosylrutinoside] : −65.1
OC[C@H]1O[C@@H](Oc2cc3c(O)cc(O)cc3[o+]c2-c2ccc(O)c(O)c2)[C@H](O[C@@H]2OC[C@@H](O)[C@H](O)[C@H]2O)[C@@H](O)[C@@H]1O.[Cl-] [Cyanidin 3-sambubioside, cyanidin 3-sambubioside] : −66.4

// moving on: another record for % change 3.5 to 6.5
Ask | Indicate the recorded % change 3.5 to 6.5 value for this molecule: OC[C@H]1O[C@@H](Oc2cc3c(O)cc(O)cc3[o+]c2-c2ccc(O)c(O)c2)[C@H](O)[C@@H](O)[C@@H]1O [cyanidin 3-glucoside]
Reply | 653.5

* * *

# Tested on: Human Oral Mucosa Explant Tissues
# Protocol: Effect of final gel pH on anthocyanin uptake into human oral mucosa explant tissues
# Assay type: in vitro ADME
# Experimental context: explant sample 010; 10% w/w FBR gel
Property label: % change 3.5 to 6.5 (%)
Dear colleague, please return just the value in %, with no unit written.

# count of solved cases: 3
OC[C@H]1O[C@@H](Oc2cc3c(O)cc(O)cc3[o+]c2-c2ccc(O)c(O)c2)[C@H](O)[C@@H](O)[C@@H]1O [cyanidin 3-glucoside] : −66.9
C[C@@H]1O[C@@H](OC[C@H]2O[C@@H](Oc3cc4c(O)cc(O)cc4[o+]c3-c3ccc(O)c(O)c3)[C@H](O)[C@@H](O)[C@@H]2O)[C@H](O)[C@H](O)[C@H]1O [cyanidin 3-rutinoside] : −91.4
OC[C@H]1O[C@@H](Oc2cc3c(O)cc(O)cc3[o+]c2-c2ccc(O)c(O)c2)[C@H](O[C@@H]2OC[C@@H](O)[C@H](O)[C@H]2O)[C@@H](O)[C@@H]1O.[Cl-] [Cyanidin 3-sambubioside, cyanidin 3-sambubioside] : −92.9

Would you kindly look at the next entry?
Ask | Find the measured % change 3.5 to 6.5 of CC1OC(OCC2OC(Oc3cc4c(O)cc(O)cc4[o+]c3-c3ccc(O)c(O)c3)C(OC3OCC(O)C(O)C3O)C(O)C2O)C(O)C(O)C1O (stereo not shown) [cyanidin 3-xylosylrutinoside] and report it.
Reply | −91.9

Where do the numbers come from? From patent US20100047371A1.
